Assay read-out pIC50 on Cytochrome P450 2C9 (Homo sapiens); records merged from the literature.
pIC50: −log10 of the molar value.

{"CHEMICAL_STRING": "CN(C)CCNC(=O)[C@H]1c2ccccc2C[C@@H]1NC(=O)c1cc2ccccc2[nH]1", "MEASURED_ON": "Cytochrome P450 2C9 (Homo sapiens)", "READING": "< 4.70"}
{"CHEMICAL_STRING": "CC(=O)N1C[C@H](C(=O)Nc2ccc(C)cc2C)[C@@H](c2nnc([C@H]3C[C@@H](CC(C)C)C3)n2C2CC2)C1", "MEASURED_ON": "Cytochrome P450 2C9 (Homo sapiens)", "READING": "< 4.30"}
{"CHEMICAL_STRING": "C[C@@H]1CN(Cc2ccc3c(-c4cnn(C)c4)cc(C(N)=O)nc3c2)C[C@H](C(F)(F)F)O1", "MEASURED_ON": "Cytochrome P450 2C9 (Homo sapiens)", "READING": "< 4.59"}
{"CHEMICAL_STRING": "CCn1c(-c2cnc(C)nc2)nc2c(N[C@H]3CCN(C(=O)C4CC4)C3)ncnc21", "MEASURED_ON": "Cytochrome P450 2C9 (Homo sapiens)", "READING": "< 4.30"}

Lab request: please report pIC50 under test system Cytochrome P450 2C9 (Homo sapiens) for O=C(Nc1ccc(Oc2ccc(F)cc2)cc1)[C@@H]1C[C@@H](Cc2ccccc2)CN1C(=O)Cc1cnc[nH]1
> 6.69

Lab request: please report pIC50 under test system Cytochrome P450 2C9 (Homo sapiens) for CC(C)n1ncnc1-c1cn2c(n1)-c1ccc(O[C@@H](C)C(N)=O)cc1OCC2
< 5.00

Lab request: please report pIC50 under test system Cytochrome P450 2C9 (Homo sapiens) for NC(=O)c1sc2ncccc2c1N
< 4.52

Lab request: please report pIC50 under test system Cytochrome P450 2C9 (Homo sapiens) for O=C(O)c1cc2cc(Br)cc(NCC3CCNCC3)c2o1
< 5.00

----------
Assay read-out IC50 on Cytochrome P450 2C9 (Homo sapiens, UniProt P11712); records merged from the literature.

{"COMPOUND": "CCc1c(CCCC(=O)O)cccc1-c1noc(-c2ccc(OC(C)C)c(C#N)c2)n1", "IC50": "> 10 µM"}
{"COMPOUND": "N#Cc1ccccc1SC1=C(O)CC(c2c(Cl)cccc2Br)CC1=O (stereo not given)", "IC50": "> 5 µM"}
{"COMPOUND": "C(=C\\CN(C[C@H]1Cc2ccccc2CN1)[C@H]1CCCc2cccnc21)/CNC1CCOCC1", "IC50": "< 5 µM"}
{"COMPOUND": "Cc1ccc(NC(=O)c2ccnc(C(F)(F)F)c2)cc1-c1ccc2c(c1)OC1(CCOCC1)NC2=O", "IC50": "> 30 µM"}

Could you now consider this next compound?
For the compound O=C(O)c1ccc(CNC(=O)c2c3ccccc3nn2Cc2ccc(C(F)(F)F)cc2)cc1 , what IC50 is on record?
> 50 µM

----------
Assay read-out IC50 on UniProt P11712; records merged from the literature.

Recorded results for 4 compounds are shown here.
{"COMPOUND": "CC1(c2ccccc2)CCCN(C(=O)NCCc2ccc3nc[nH]c3c2)C1 (stereo not given)", "MEASURED_ON": "UniProt P11712", "MEASURED_PARAMETER": "IC50", "READING": "< 10 µM"}
{"COMPOUND": "Oc1ccc2[nH]c(-c3ccccc3)nc2c1CN1CCCCC1", "MEASURED_ON": "UniProt P11712", "MEASURED_PARAMETER": "IC50", "READING": "> 30 µM"}
{"COMPOUND": "CNc1nc(C)nc(N2CCC(C(=O)NCc3ccccc3OC)CC2)n1", "MEASURED_ON": "UniProt P11712", "MEASURED_PARAMETER": "IC50", "READING": "> 25 µM"}
{"COMPOUND": "CSc1cc2c(cc1C(F)(F)F)N(C(=O)Nc1cccnc1)CC2", "MEASURED_ON": "UniProt P11712", "MEASURED_PARAMETER": "IC50", "READING": "> 100 µM"}

Lab request: please report IC50 under test system UniProt P11712 for CCOc1cc(CN2CCC3(CC2)CC(=O)N(c2ccc(C(=O)O)cc2)C3)cc(OCC)c1-c1ccc(F)cc1.O=C(O)C(F)(F)F
> 50 µM

----------
Assay read-out IC50 on Cytochrome P450 2C9 (Homo sapiens); records merged from the literature.

Recorded results for 4 compounds are shown here.
{"CHEMICAL_STRING": "COCCOc1cc(F)c2c(c1)CC[C@@H]2Nc1nc2nc(O[C@@H]3CO[C@H]4[C@@H]3OC[C@H]4O)[nH]c2cc1Cl", "IC50": "> 20 µM"}
{"CHEMICAL_STRING": "C[C@@H](NC(=O)[C@@](C)(O)C(F)(F)F)c1ncc(-c2cc(Cl)cc(F)c2-c2nnn(C)n2)cc1F", "IC50": "> 10 µM"}
{"CHEMICAL_STRING": "Nc1nc2ccc(C(=O)NCCc3c[nH]c4ccccc34)cc2s1", "IC50": "> 25 µM"}
{"CHEMICAL_STRING": "Cc1ccc(-c2c(-c3nn(C)c4ncnc(N5CC[C@H](N6CCCCC6)C5)c34)cnn2C)cc1", "IC50": "> 100 µM"}

Lab request: please report IC50 under test system Cytochrome P450 2C9 (Homo sapiens) for CC(C)N1CCC(Oc2ccc3cc(C(=O)N4CCOCC4)ccc3c2)CC1
> 41 µM

----------
Assay read-out IC50 on Cytochrome P450 2C9 (Homo sapiens); records merged from the literature.

Recorded results for 8 compounds are shown here.
{"COMPOUND": "CC(C)N1CCC(Oc2ccc3c(c2)cc2n3C[C@H](C)NC2=O)CC1", "IC50": "> 50 µM"}
{"COMPOUND": "CN([C@@H]1CCc2c(CC(=O)O)c3cccnc3n2C1)S(=O)(=O)c1ccc(F)cc1", "IC50": "> 50 µM"}
{"COMPOUND": "O=c1[nH]c(CNC(CO)CO)c(I)c(=O)[nH]1", "IC50": "> 100 µM"}
{"COMPOUND": "Cn1c(=O)n(CC(=O)N2CCC2)c2cc(-c3ccc(C(F)(F)F)s3)cnc21", "IC50": "> 50 µM"}
{"COMPOUND": "Cn1nccc1-c1ccc2c(c1)C(=O)CC1(CCN(C(=O)N[C@H]3C[C@@H]3c3ccccc3)CC1)O2 (racemic)", "IC50": "> 10 µM"}
{"COMPOUND": "COc1ccc2c(c1)CCCN(C1CCN(C(=O)C3(F)CCN(Cc4ccnc(N)c4)CC3)CC1)C2", "IC50": "> 30 µM"}
{"COMPOUND": "O=C(Nc1ccc(Cl)cc1)N1CCCC(CCO)(c2ccccc2)C1 (stereo not given)", "IC50": "< 10 µM"}
{"COMPOUND": "Cc1ccc(S(=O)(=O)Nc2c(C(=O)N[C@@H](C)C(C)(C)C)c(C)nn2-c2ccccc2)cc1", "IC50": "> 10 µM"}

For the compound CC1(C)CN(c2cccnc2)C(=O)c2ccc(Cl)cc21 , what IC50 is on record?
> 50 µM

For the compound CC(=O)Nc1cccc2c1c(Sc1ccc(Cl)cc1)c(C)n2CC(=O)O , what IC50 is on record?
> 10 µM

----------
pIC50: −log10 of the molar value.
Assay read-out pIC50 on Cytochrome P450 2C9 (Homo sapiens); records merged from the literature.

{"CHEMICAL_STRING": "CNc1nc(C)nc(N2CCC(C(=O)NCc3ccc(OC(F)(F)F)cc3)CC2)n1", "pIC50": "< 4.60"}

Lab request: please report pIC50 under test system Cytochrome P450 2C9 (Homo sapiens) for CNCCS(=O)(=O)CC[C@@H]1OCC[C@@]2(S(=O)(=O)c3ccc(Cl)cc3)c3c(F)ccc(F)c3OC[C@@H]12
< 4.70

Lab request: please report pIC50 under test system Cytochrome P450 2C9 (Homo sapiens) for Cc1cccc(-c2[nH]c(NCc3cccc(F)c3)nc2-c2ccc3c(cnn3S(C)(=O)=O)c2)n1
< 5.00

Lab request: please report pIC50 under test system Cytochrome P450 2C9 (Homo sapiens) for O=C(/C=C/c1ccc2ccccc2c1)c1cccnc1
< 4.70

----------
Assay read-out IC50 on Cytochrome P450 2C9 (Homo sapiens); records merged from the literature.

Recorded results for 3 molecules are shown here.
{"MOLECULE": "CCCCN1C(=O)[C@@H]([C@H](O)C(C)C)NC(=O)C12CCN(Cc1ccc(Oc3ccccc3)cc1)CC2", "READING": "> 30 µM"}
{"MOLECULE": "CCN1C(=O)CN(c2ccc(Cc3cc([C@@H]4O[C@H](CO)[C@@H](O)[C@H](O)[C@H]4O)ccc3Cl)cc2)C1=O", "READING": "> 11 µM"}
{"MOLECULE": "C[C@@H]1COCCN1c1cc(N2CCOC[C@@H]2C)nc2[nH]c(-c3ccccn3)nc12", "READING": "> 50 µM"}

Could you now consider this next molecule?
For the molecule COc1ccc(C(C)=O)cc1CSc1nc2cc(F)ccc2n1CC(=O)O , what IC50 is on record?
> 50 µM
